target: HIV-1 Env of isolate MGRM-A-006 (pseudovirus) (HIV-1); experiment: cell-based or functional assay
Measure Name: IC50 (µg/mL), pseudovirus neutralization

Incoming: Report IC50 (µg/mL), pseudovirus neutralization for PGT-126 (5141_B17) (antibody, V domains shown) VH: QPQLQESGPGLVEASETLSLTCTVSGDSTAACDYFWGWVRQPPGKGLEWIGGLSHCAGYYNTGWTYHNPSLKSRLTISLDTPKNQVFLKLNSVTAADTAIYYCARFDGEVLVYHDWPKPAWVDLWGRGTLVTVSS VL: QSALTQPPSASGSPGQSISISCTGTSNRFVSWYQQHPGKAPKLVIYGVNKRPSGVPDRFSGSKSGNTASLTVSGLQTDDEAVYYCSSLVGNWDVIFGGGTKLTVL
Outgoing: > 50 µg/mL

Each recorded value in this set is attributed to patent US20250320281A1.
